# Test system: light damaged rats
# assay-method-text: Electroretinogram (ERG) in retina light damage model of dry AMD
# Assay type: in vivo, Sprague Dawley (SD) rats
# condition-description: 0.26 mg/kg oral
# Method: Retina Light Damage Model of Dry Age-Related Macular Degeneration—The intense light damage model was prepared and carried out as described in previous studies. Mat Nor N, Guo C X, Rupenthal ID, Chen Y S, Green C R, Acosta M L. Sustained Connexin43 Mimetic Peptide Release From Loaded Nanoparticles Reduces Retinal and Choroidal Photodamage. […] Baseline electroretinography (ERG) readings and optical coherence tomography (OCT) images were collected prior to the light damage. […]
measurement-name: improvement in absolute amplitude of the b-wave (on average) (µV)

{"smiles-representation": "CC(=O)c1ccc2c(c1)[C@H](NC(=O)c1ccc(F)c(Cl)c1)[C@H](O)C(C)(C)O2", "numeric-readout": 1000}

###

# Test system: hyperglycemic rats
# assay-method-text: ERG in hyperglycemic rat diabetic retinopathy model
# Assay type: in vivo, SD rats (spontaneously hyperglycemic strain)
# condition-description: 0.28 mg/kg once daily 14 days; week 8; untreated controls 400 V
measurement-name: mixed b-wave, maximum intensity (µV)

{"smiles-representation": "CC(=O)c1ccc2c(c1)[C@H](NC(=O)c1ccc(F)c(Cl)c1)[C@H](O)C(C)(C)O2", "numeric-readout": 700}
